IC50 for Vascular endothelial growth factor receptor 2 (Homo sapiens), merged from several publications.

The value of IC50 measured for the compound O=C(c1cc(NS(=O)(=O)c2cccc(OC(F)(F)F)c2)ccc1F)c1c[nH]c2ncccc12 turned out to be ≤ 10000 nM

COCCOCCOCCOCCNC(=O)c1c(C)[nH]c(/C=C2\C(=O)Nc3ccc(F)cc32)c1C yielded IC50 of 180 nM

Record COc1ccc(CN[C@]2(C)C[C@H]3CN(c4ccc(-c5cc(-c6cnn(C)c6)cn6ncc(C#N)c56)cn4)C[C@H]3C2)cn1 . Reported IC50: 10 to 50 nM

Just so you know, measured IC50 for COc1cc2nccc(Oc3ccc(NC(=O)c4c(C)n(C)c(C)c(C(C)C)c4=O)cc3F)c2nc1OC came out at > 300 nM

IC50 for Fc1nc(NCc2ccc(Cl)cc2)ccc1Cc1c[nH]c2ncncc12 is ≤ 10000 nM

Quick note, IC50 for COCCOc1ccc(F)c(Cc2c[nH]c3ncccc23)c1Cl landed at ≤ 10000 nM

So for O=C(Nc1cccc(C(=O)c2ccc3ncc(N4CCCC4)nc3c2)c1)c1cccc(C(F)(F)F)c1 , the logged IC50 turned out to be < 100 nM

Consider c1ccc(Nc2nc3c(-c4ccccc4)nccn3n2)cc1 . Its measured IC50 is 300 to 3000 nM

Continuing:
Lab note: measured IC50 of COc1cc(OC)cc(N(CC2CC2)c2ccc3ncc(N4CCN(CCO)CC4)nc3c2)c1 was 3980 nM

For COc1cc2ncnc(Nc3ccc(NC(=O)Nc4ccc(Oc5ccccc5)cc4)c(Cl)c3)c2c2c1OCCO2 the compound record lists IC50 as > 5000 nM

Looking up COc1cc2nccc(Oc3ccc(NC(=S)N4CC(F)(F)C4)cc3F)c2cc1C(N)=O , I found its IC50 recorded as 200 to 1000 nM
